Parameter cytotoxicity at 70.5 h: see the listing below.
- assay: Human HepG2 cell viability assay in 384 well format
- Format: toxicity, cell-based
- Parameters: dose 125 nL, time 70.5 hour; concentration not given beside the values
- measurement conditions: HepG2 cells, read-out: Inhibition
Return type: number; implicit unit %.

O=C(Nc1cnc(Oc2ccccc2F)nc1)C1CC1    -3.71
CCc1cc(=O)n(CC(=O)N2CCCC2)c(-c2ccccc2)n1    -5.29
CCc1ncc2c(n1)CN(c1cc(N3CCN(C)CC3)nc(N)n1)C2    25
COC(=O)c1ccc(C2SCC(=O)Nc3c2cnn3C2CCCC2)cc1 (configuration not stated)    -12.4
CC(NC(=O)Cc1cccs1)(C(N)=O)c1cccc(Cl)c1 (configuration not stated)    1.57

Notebook: O=C(CCc1ccccn1)NC1CCCN(C2Cc3ccccc3C2)C1 (configuration not stated) , cytotoxicity at 70.5 h read as -8.7

// c1cnn(CCN2CCOC(Cn3cncn3)C2)c1 (configuration not stated) : cytotoxicity at 70.5 h value = 6.43

The compound identified as CCc1ccc(C(=O)NC[C@H]2CCCN2C(=O)c2ccc(CC)o2)o1 registered its cytotoxicity at 70.5 h at 2.7

Quick note, cytotoxicity at 70.5 h for N#Cc1ccc(N2CCCN(C(=O)CC3CCCO3)CC2)cc1 (configuration not stated) landed at -15.2

Reported cytotoxicity at 70.5 h of COc1ccc(CN2CCC(CO)(Cc3ccc(Cl)cc3)CC2)c(O)c1 : -11.2

According to the records, this compound O=C(CCC(F)(F)F)NCC1CCCS1 (configuration not stated) displays cytotoxicity at 70.5 h of -6.67

For reference, reported cytotoxicity at 70.5 h for C[C@]1(O)CN(Cc2ncccc2F)CC[C@@H]1Oc1cccc(F)c1 stands at -5.53
